System: P. falciparum NF54-pfs16-GFP early (I-III) stage gametocytes
Assay: relative % inhibition of viable gametocyte number; higher = more gametocytocidal
Conditions: 0.5 µM; stage: early (I-III) gametocyte; incubation 72 h

molecule: CN(C)c1ccc(-c2nc3cc(N)ccc3[nH]2)cc1
measure-unit: %
relative % inhibition: -6.62

molecule: CCOC(=O)c1cnc2ccc(Cl)cc2c1NCCCN(C)C
measure-unit: %
relative % inhibition: 3.83

molecule: CCCCc1c(C)nc2c(OC)cccc2c1O
measure-unit: %
relative % inhibition: 12.7

molecule: O=C(NCC(c1ccsc1)N1CCCCCC1)c1ccc(C(F)(F)F)cc1 (stereo unspecified)
measure-unit: %
relative % inhibition: -5.22

molecule: CCn1c2c(c(=N)c3c1CCC3)CCCC2
measure-unit: %
relative % inhibition: -1.17

molecule: O=C(NCC1Cc2cccc(-c3ccncc3)c2O1)c1csc2c1CCCC2 (stereo unspecified)
measure-unit: %
relative % inhibition: -5.92

molecule: CCOc1cc2c(cc1OCC)C(c1cc(C)c(O)c(C)c1)NCC2 (stereo unspecified)
measure-unit: %
relative % inhibition: 18.2

molecule: Cc1ccc(-c2cc3c(SCC(=O)Nc4cc(C(F)(F)F)ccc4Cl)nccn3n2)cc1
measure-unit: %
relative % inhibition: -5.62

molecule: Cc1sc(NC(=O)c2ccco2)c(C(c2cccnc2)N2CCC(Cc3ccccc3)CC2)c1C (stereo unspecified)
measure-unit: %
relative % inhibition: -12.2

molecule: COc1ccc(C2c3ccc4ccccc4c3Oc3ncn(CCCn4ccnc4)c(=N)c32)cc1OC (stereo unspecified)
measure-unit: %
relative % inhibition: 59.1

molecule: CCOC(=O)c1ccc2nc(-c3ccccc3)cc(O)c2c1
measure-unit: %
relative % inhibition: 2.53
